I'd appreciate it if you could supply GFP+ MAC1+ double positive values for the items below.
# Assay name: HoxA9-arrested leukemia cell differentiation promoters – flow cytometry, MLPCN library, primary screen (AID 624256);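 on GFP+ MAC1+ double positive: cells exposed to compound for four days before flow analysis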
# Experimental setup: ER-HoxA9 myeloid progenitors, lysozyme-GFP differentiation, at 10 µM; measured here: differentiation confirmed by MAC1 staining, stronger effect = higher value
The campaign covered roughly 360,000 compounds. About 3,700 (1%) were called active. Another 2% or so got no clear call; they are omitted. This excerpt belongs to a sample that is enriched for actives.
Answers are plain numbers, in %.

INSERT INTO results (compound, readout, numeric_readout) VALUES
  ('COC(=O)[C@]12CCCCC=C1N(CCC1=CCCCC1)C(=O)[C@H](CC(=O)N1CCSCC1)C2', 'GFP+ MAC1+ double positive', 0.5);

Hi team, please reply with GFP+ MAC1+ double positive for each item in this list.
1. COC(=O)[C@@]12C[C@@H](CC(=O)N3CCC(c4ccccc4)CC3)C(=O)N(Cc3ccccc3)C1=CCC(C)(C)C2
2. Cc1ccc(C(=O)Nc2ncccc2C)cc1S(=O)(=O)N1CCOCC1
3. OC(c1ccc(Cl)c(F)c1)c1ncc(-c2ccccc2Cl)[nH]1 (centres undefined)

[1.2, 0.8, 1.3]

###

# Assay name: HoxA9-arrested leukemia cell differentiation promoters – flow cytometry, MLPCN library, primary screen (AID 624256)
# Experimental setup: ER-HoxA9 myeloid progenitors, lysozyme-GFP differentiation, at 10 µM
The whole screen tested about 360,000 compounds, of which about 3,700 (1%) were called active. Another 2% or so got no clear call; they are omitted.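 The calls were made as follows: active = normalized GFP-positive differentiation at or above the plate's own cutoff, the solvent-only control mean plus 3 SD; inconclusive = no clear call, values can overlap the other calls; inactive = the rest.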 This excerpt belongs to a sample that is enriched for actives.
A correct response names exactly one class from T for active, F for inactive

INSERT INTO assay_data (molecule, class_label) VALUES
  ('CC(C)(C)SCCNC(=O)c1cccc([N+](=O)[O-])c1', 'F');

Hi, do you know how `N#Cc1c(C(F)(F)F)cc(-c2ccccc2)nc1SCC(=O)N1CCOCC1` came out in this test? F

Hi, do you know how `CN(C(=O)c1cccc([N+](=O)[O-])c1)c1ccccc1C(=O)NCc1ccccc1` came out in this test? T

Hi, do you know how CC(C)C1Cc2[nH][nH]c(=O)c2C(c2ccc(Cl)cc2)O1 (configuration not stated) came out in this test? F

Hi, do you know how NC(c1csc(NC(=O)Nc2ccccc2Oc2ccccc2)n1)c1ccccc1Cl (configuration not stated) came out in this test? F

Hi, do you know how `CC(=O)c1c(C)[nH]c(C(=O)NCc2ccc(C)cc2)c1C` came out in this test? F

Hi, do you know how `CC(=O)c1c(C)[nH]c(C(=O)NCCCN2CCCC2)c1C` came out in this test? F

Hi, do you know how COC(=O)Cc1ccc(OC2(C)CCN(Cc3ccc4c(c3)OCCO4)C2)cc1 (configuration not stated) came out in this test? F

Hi, do you know how `CCc1nc2ccc(C(=O)NC3CCN(Cc4ccccc4)CC3)cn2c1N(C)CCN1CCOCC1` came out in this test? F

Hi, do you know how `Cc1ccc(CSCC(=O)N(C)CC(=O)Nc2cccc(F)c2)cc1` came out in this test? F

###

# Assay name: HoxA9-arrested leukemia cell differentiation promoters – flow cytometry, MLPCN library, primary screen (AID 624256);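 on normalized GFP-positive differentiation: cells exposed to compound for four days before flow analysis; 0% = DMSO wells and 100% = fulvestrant positive control at 5 µM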
# Experimental setup: ER-HoxA9 myeloid progenitors, lysozyme-GFP differentiation, at 10 µM; stronger effect = higher value
Screen size: about 360,000 compounds; about 3,700 (1%) were called active. Not shown: some 2% with an inconclusive outcome. The full list was thinned out, with actives kept by preference.
Readout: normalized GFP-positive differentiation

Some solved cases for reference:
INSERT INTO measurements (compound, readout, result) VALUES
  ('CCCCOCCCNC(=O)C[C@@H]1C[C@@]2(C(=O)OCC)CCCC=C2N(CCC2=CCCCC2)C1=O', 'normalized GFP-positive differentiation', 'inactive'),
  ('COc1ccccc1/C=C/C=N/NC(=O)CN1CCN(Cc2ccccc2)CC1', 'normalized GFP-positive differentiation', 'inactive'),
  ('Cc1ccc(C(=O)Cn2cccn2)cc1', 'normalized GFP-positive differentiation', 'inactive'),
  ('COC(=O)C[C@@H]1C=C[C@@H](NC(=O)c2cccnc2)[C@@H](CO)O1', 'normalized GFP-positive differentiation', 'inactive'),
  ('N#Cc1ccc(-c2nc3c(Cl)cc(C(F)(F)F)cn3c2Cc2ccccc2C(F)(F)F)cc1', 'normalized GFP-positive differentiation', 'inactive'),
  ('Cc1ccc(S(=O)(=O)NCCSC(C)(C)C)cc1', 'normalized GFP-positive differentiation', '17.8% (active)');

Hi team, please reply with normalized GFP-positive differentiation for each item in this list.
1. COc1ccc(C(=O)C[n+]2ccc(N)c(C)c2C)cc1
2. CO/N=C/CC(=O)c1ccc(OC)cc1
3. COc1ccc(C(=O)C[n+]2ccc(C)cc2)cc1
4. Cc1cc(NC(=O)CCN2CCN(Cc3ccccc3)CC2)ccc1Br
5. COc1ccc(CNC(=O)C2(CC3CC(c4ccccc4)=NO3)CCN(C(=O)c3cccc(O)c3)CC2)cc1 (stereo unspecified)
6. OCCC#Cc1ccc(N2C(c3ccsc3)=Cc3ccc(F)cc3C2c2c[nH]c3ccccc23)cc1 (stereo unspecified)

1. 39.6% (active)
2. inactive
3. inactive
4. inactive
5. inactive
6. 16.8% (active)

###

# Assay name: HoxA9-arrested leukemia cell differentiation promoters – flow cytometry, MLPCN library, primary screen (AID 624256)
# Experimental setup: ER-HoxA9 myeloid progenitors, lysozyme-GFP differentiation, at 10 µM
Among all 360,000 compounds or so, about 3,700 (1%) were called active. Roughly 2% stayed inconclusive and do not appear here.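 Rule for the calls: active = normalized GFP-positive differentiation at or above the plate's own cutoff, the solvent-only control mean plus 3 SD; inconclusive = no clear call, values can overlap the other calls; inactive = the rest.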 Only a selection was taken, and actives are over-represented in it overall.
A correct response names exactly one class from active, inactive

Here's what some known entries look like.
INSERT INTO assay_data (compound, class_label) VALUES
  ('CC(C)N1C(=O)c2ccccc2NC(=O)C1C(=O)NCc1cccs1 (centres undefined)', 'inactive'),
  ('O=C1Nc2cc(C(=O)N3CCN(c4ccc(F)cc4)CC3)ccc2NC1CSCc1cccc(F)c1 (centres undefined)', 'active'),
  ('CC1CCN(C(=O)c2ccc(S(=O)(=O)Cc3cc(F)ccc3F)c([N+](=O)[O-])c2)CC1', 'active'),
  ('O=C(Nc1cccc(Cc2ccccc2)c1)Nc1ccc2nc([C@@H]3O[C@H](CO)[C@@H](O)[C@H](O)[C@H]3O)[nH]c2c1', 'inactive'),
  ('Nc1ccc(C(=O)N2CCN(S(=O)(=O)c3ccc(Cl)cc3)CC2)cc1[N+](=O)[O-]', 'inactive'),
  ('C=CCn1c(SCc2cccc(F)c2)nc2cc(C(=O)N3CCC(C(N)=O)CC3)ccc2c1=O', 'inactive');

Hi, do you know how `Cc1ccc2nc(-c3ccccc3)c(CC3CCCCC3)n2c1` came out in this test? inactive

Hi, do you know how `CCCc1c(-c2ccccc2F)ncn1Cc1ccccc1OC` came out in this test? inactive

Hi, do you know how `O=C(c1ccc(Oc2ccc(Cl)cc2)c([N+](=O)[O-])c1)N1CCCC1` came out in this test? inactive

###

# Assay name: HoxA9-arrested leukemia cell differentiation promoters – flow cytometry, MLPCN library, primary screen (AID 624256);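 on GFP+ MAC1+ double positive: cells exposed to compound for four days before flow analysis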
# Experimental setup: ER-HoxA9 myeloid progenitors, lysozyme-GFP differentiation, at 10 µM; measured here: differentiation confirmed by MAC1 staining, stronger effect = higher value
In all, about 360,000 compounds went through this assay and about 3,700 (1%) were called active. Not shown: some 2% with an inconclusive outcome. The sample as a whole holds a higher share of actives than the screen did.
Readout: GFP+ MAC1+ double positive

INSERT INTO measurements (molecule, result) VALUES
  ('COc1cc(OC)cc(C2=Cc3ccccc3C(CC(=O)c3ccco3)N2c2ccc(-c3cnc(OC)nc3)cc2)c1 (configuration not stated)', '1%'),
  ('C=C1C(=O)[C@]23C[C@H]1CCC2[C@@]1(C)C(C[C@@H]3O)[C@](C)(C(=O)O)CC[C@@H]1O (some centres not stated)', '3.8%'),
  ('Cc1cc(NC(C)C)n2c(nc3ccccc32)c1C#N', '1%');

Hi team, please reply with GFP+ MAC1+ double positive for each item in this list.
1. CC(C)c1cccc(C(C)C)c1Nc1cn[nH]c1
2. O=C(Nc1cccc(F)c1)c1cc(-c2ccco2)nc2ccccc12
3. COc1cc(/C=N/O)cc(Br)c1OCc1cccc(Cl)c1
4. O=C(Nc1cccc2cccnc12)c1ccc2sc([C@H]3C[C@H](O)[C@@H](CO)O3)nc2c1
5. Cc1nc(Nc2ccccc2F)c2nnn(Cc3ccccc3Cl)c2n1
6. Cc1ccc(Cc2c(-c3ccc(Cl)cc3)nc3c4ccccc4ccn23)cc1
7. O=C(NCc1ccc(F)cc1)c1cc(C2CCCCN2C(=O)c2ccccn2)on1 (configuration not stated)

0.2%
0.5%
0.1%
0.8%
0.5%
0.4%
2.6%

Hi team, please reply with GFP+ MAC1+ double positive for each item in this list.
1. O=C(CN1C(=O)CSC1=O)N1CCCC(Nc2ccc(F)cc2)C1 (configuration not stated)
2. O=C(Cc1cccs1)NCc1cccc(C(F)(F)F)c1
3. COc1cc(/C=C2/C(=O)NN(c3cccc(Cl)c3)C2=O)cc(Br)c1O
4. O=C(Nc1cccc(Cc2ccccc2)c1)Nc1ccc2nc([C@@H]3O[C@H](CO)[C@@H](O)[C@H](O)[C@H]3O)[nH]c2c1
5. CSCCC(NS(=O)(=O)/C=C/c1ccccc1)C(=O)N1CCC(C)CC1 (configuration not stated)
6. NNC(=O)c1oc2nc(-c3ccccc3)cc(-c3ccco3)c2c1N
7. CC(C)CNC(=O)COC(=O)/C=C/c1ccccc1[N+](=O)[O-]

1: 0.7%; 2: 3.5%; 3: 11.4%; 4: 2.9%; 5: 1%; 6: 1%; 7: 4.9%

Hi team, please reply with GFP+ MAC1+ double positive for each item in this list.
1. Cc1ccc(S(=O)(=O)N2CC3C(=O)C[C@@H](c4ccccc4Cl)N(S(=O)(=O)c4ccc(C)cc4)C3CC2c2ccccc2)cc1 (some centres not stated)
2. O=C(CN1CCN(c2ccc(Cl)cc2)CC1)c1ccccc1
3. Cc1ccc(S(=O)(=O)NCC(C)NS(C)(=O)=O)cc1 (configuration not stated)
4. COC(=O)Cc1ccc(OC2(C)CCN(Cc3ccc4c(c3)OCCO4)C2)cc1 (configuration not stated)
5. Cc1ccc(S(=O)(=O)N(C)c2nc3ccccc3n3c(C(C)C)nnc23)cc1

1: 1.9%; 2: 0.3%; 3: 2%; 4: 2.5%; 5: 2%
